composite z-score values for the compounds below.
Biological target: Follistatin-related protein 3 (Homo sapiens)
Assay: FSTL3 binders on small-molecule microarrays, primary screen, biochemical, small-molecule microarray, 635 nm fluorescence (AID 1105);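 note: score merges emission near 667 nm and signal to noise per printed spot across three slides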
Conditions: FSTL3 binding, higher = more signal
Measurement name: composite z-score

INSERT INTO results (compound, measurement_name, data_value) VALUES
  ('CCOC(=O)[C@H](Cc1ccccc1)NC(=O)CCC1CC(OC(=O)NCCc2ccc(F)cc2)CC2(CCCC(COC(=O)NCCOC)O2)O1 (some centres not stated)', 'composite z-score', 0.969),
  ('O=C1C[C@@H](O)[C@@H](O)[C@@H]2[C@@H]3C(=O)N(C[C@@H]4CCCO4)C(=O)[C@@H]3CC[C@@H]12', 'composite z-score', 0.761),
  ('COC(=O)[C@@H]1CC[C@@H](C)[C@H](c2ccc(Br)cc2)N1', 'composite z-score', -0.155),
  ('O=C1C=C[C@@H](O)[C@@H]2[C@@H]3C(=O)N(C[C@@H]4CCCO4)C(=O)[C@@H]3CC[C@@H]12', 'composite z-score', 0.591),
  ('CC(C)C[C@H](NC(=O)CCC1CC(OC(=O)NCc2cccc3ccccc23)CC2(CCCC(COC(=O)NCc3ccccc3)O2)O1)C(=O)NCC(c1ccccc1)c1ccccc1 (some centres not stated)', 'composite z-score', 1.12),
  ('Cc1cc2c(c(=O)o1)[C@@H](O)[C@H]1O[C@H]1C2=O', 'composite z-score', 0.522),
  ('CO[C@@H]1COC(=O)[C@@H](C)NC(=O)CC=C[C@@H](C)[C@H](NS(=O)(=O)c2ccc(C)cc2)COC(=O)[C@H](C)NC(=O)CC=C[C@H]1C', 'composite z-score', 0.661);

----------
Assay: E. coli acrAB mutant growth effects, primary screen, E. coli filamentation inducers, strain DRC39, OD650, 48 h (AID 1179);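 note: screen aims at cell division blockers that make cells filament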
Settings: E. coli DRC39 delta-acrAB growth, higher = more signal, called active from +8 up or from −8 down
z-score values for the compounds below.
Measurement name: z-score

INSERT INTO assay_data (compound, measurement_name, data_value) VALUES
  ('CCN1C(=O)[C@H]2[C@H]3[C@H](O)[C@H](O)CC(=NNC(=O)OCc4ccc(OC)cc4)[C@@H]3CC[C@H]2C1=O', 'z-score', -0.0457),
  ('CC(C)=CCCC(C)=CCON=C1C[C@@H](O)[C@@H](O)[C@@H]2[C@@H]3C(=O)N(Cc4ccccc4)C(=O)[C@@H]3CC[C@H]12', 'z-score', 0.167),
  ('CC(C)C[C@H](NC(=O)CCC1CC(OC(=O)NCc2cccc3ccccc23)CC2(CCCC(COC(=O)NCc3ccccc3)O2)O1)C(=O)NCC(c1ccccc1)c1ccccc1 (stereo partly specified)', 'z-score', 0.628),
  ('COc1ccc(COC(=O)NN=C2C[C@@H](O)[C@@H](O)[C@@H]3[C@@H]4C(=O)N(Cc5ccccc5)C(=O)[C@@H]4CC[C@H]23)cc1', 'z-score', -0.463),
  ('CCOC(=O)[C@H](CC(C)C)NC(=O)CCC1CC(OC(=O)NCc2cccc3ccccc23)CC2(CCCC(COC(=O)NCCCN3CCCC3=O)O2)O1 (stereo partly specified)', 'z-score', 0.323),
  ('CCN1C(=O)[C@H]2[C@H]3[C@H](O)[C@H](O)CC(=NOC[C@H]4O[C@H](c5ccccc5)C=C[C@@H]4Oc4ccc(OC)cc4)[C@@H]3CC[C@H]2C1=O', 'z-score', 0.923);
